Tested on: Trichuris muris adult worms
experimentSummary: mean motility score (Paragon pixel variance) of adult worms (arbitrary units); higher = more motile worms, i.e. less anthelmintic effect; extreme values may be limits of the assay
testContext: 100 µM; 24 h
Would you please tag the item YES when its mean motility score is 2000 or above, and NO when it is below?

Worked set:
COc1ccc([C@@H]2Sc3ccccc3N(CCN(C)C)C(=O)[C@@H]2OC(C)=O)cc1; YES
CCN(CC)CCOc1ccc2nc(N(C)C)sc2c1.Cl.Cl [diamthazole dihydrochloride]; YES
CC(C)(C)c1nc(-c2cccc(NS(=O)(=O)c3c(F)cccc3F)c2F)c(-c2ccnc(N)n2)s1; NO
CC(C)(C)NC(=O)[C@H]1CC[C@H]2[C@@H]3CC[C@H]4NC(=O)C=C[C@]4(C)[C@H]3CC[C@]12C [finasteride]; YES

Attention now turns to another entry.
Q. Exam item: decide whether the reported mean motility score for `Cc1ccc(O)c(-n2nc3ccccc3n2)c1` is at least 2000.
A. YES

###

System: Trichuris muris adult worms
experimentSummary: mean motility score (Paragon pixel variance) of adult worms (arbitrary units); higher = more motile worms, i.e. less anthelmintic effect; extreme values may be limits of the assay
testContext: 100 µM; 24 h
recordedEndpoint: mean motility score
Give your answer as a number; write no unit.

CCCCc1oc2ccccc2c1C(=O)c1cc(I)c(OCCN(CC)CC)c(I)c1 [amiodarone]; 2080
CN(C)c1nc(N(C)C)nc(N(C)C)n1 [altretamine]; 3430
O=C(O)c1cc(-c2ccc(F)cc2F)ccc1O [diflunisal]; 1040

// next entry
Q. Which mean motility score reading was recorded for the molecule COc1c2occc2cc2ccc(=O)oc12 [methoxsalen] ?
A. 4190

###

Tested on: Trichuris muris adult worms
experimentSummary: mean motility score (Paragon pixel variance) of adult worms (arbitrary units); higher = more motile worms, i.e. less anthelmintic effect; extreme values may be limits of the assay
testContext: 100 µM; 24 h
recordedEndpoint: mean motility score

Reference set (8 entries):
CC(=O)OCC(=O)[C@@]1(O)CC[C@H]2[C@@H]3CCC4=CC(=O)CC[C@]4(C)[C@H]3[C@@H](O)C[C@@]21C [hydrocortisone acetate]; 3080
Oc1ncc(F)c(O)n1 [fluorouracil]; 3090
CC/C(=C(/CC)c1ccc(O)cc1)c1ccc(O)cc1 [diethylstilbestrol]; 0
COc1cc2c(Oc3ccc4[nH]c(C)cc4c3F)ncnc2cc1OCCCN1CCCC1 [cediranib]; 0
C#Cc1cccc(Nc2ncnc3cc(OCCOC)c(OCCOC)cc23)c1 [erlotinib]; 1720
Cc1c(C(=O)NN2CCCCC2)nn(-c2ccc(Cl)cc2Cl)c1-c1ccc(Cl)cc1 [rimonabant]; 2060
CCCc1cc(C(N)=S)ccn1 [protionamide]; 2460
COc1ccc2[nH]cc(CCNC(C)=O)c2c1 [melatonin]; 4410

Q. Which mean motility score reading was recorded for the compound CN/C(=C\[N+](=O)[O-])NCCSCc1csc(CN(C)C)n1 [nizatidine] ?
A. 3800

Q. Entry to check: Cc1ccc(-c2ncc(Cl)cc2-c2ccc(S(C)(=O)=O)cc2)cn1 [etoricoxib]
A. 3660

Q. Entry to check: CCc1c2c(nc3ccc(OC(=O)N4CCC(N5CCCCC5)CC4)cc13)-c1cc3c(c(=O)n1C2)COC(=O)[C@]3(O)CC [irinotecan]
A. 2280

Q. Entry to check: CCCCNc1ccc(C(=O)OCCN(C)C)cc1 [tetracaine]
A. 4810
